# Experiment: Phase Ib trial: plasma pharmacokinetics
# Format: in vivo, human
# Experimental parameters: human, plasma, po

[
  {
    "Compound": "Cn1cc(-c2nc(N[C@@H]3CCCC[C@@H]3N)c(F)c3c2C(=O)NC3)cn1 [mivavotinib]",
    "Tmax": "1 to 3 h"
  }
]
